- targetUnderTest: T1, recombinant CD40 (human, UniProt P25942 21-193, limits assumed)
- T1 construct: the ELISA method itself names no species or construct; also called antigen CD40
- T1 sequence (P25942 21-193 limits assumed): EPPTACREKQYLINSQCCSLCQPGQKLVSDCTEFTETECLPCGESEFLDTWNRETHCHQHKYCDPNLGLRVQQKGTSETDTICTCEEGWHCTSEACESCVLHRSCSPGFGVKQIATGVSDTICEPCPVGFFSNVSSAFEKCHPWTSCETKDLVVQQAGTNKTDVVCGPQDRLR
- experimentSummary: ELISA, plates coated with recombinant CD40, AP-conjugated anti-human kappa detection; effective concentration in supernatant read on a PG102 reference curve
- Description: Binding of the antibody variants to CD40 was measured using an ELISA based assay based on UKSL-2057. Microtiter plates were coated with recombinant CD40 before the antibody variants were added and detected using an alkaline phosphatase conjugated antihuman kappa IgG. Samples were then prepared and analyzed The results were converted to effective concentrations in the clarified supernatant […] This assay provides an assessment of the affinity of the antibody variants for CD40.
measurementLabel: CD40 binding (mg/L)

>>> experimentalvalue("PG102_Var15 (antibody, human IgG4 S228P, kappa, V domains shown, IgG4pro(deltaK)/kappa; also called FFP104_Var15) VH: QVQLQESGPGLVKPSQTLSLTCTVSGFSLSRYSVYWVRQPPGKGLEWIGMMWGGGSTDYNPSLKSRLTISKDTSKSQVSLKLSSLTAADTAVYYCVRTDGDYWGQGTLVTVSS VL: DIVMTQSPLSLPVTPGQPASISCRSSQSLASSQGNTYLHWYLQKPGQSPRLLIYKVSNRFSGVPDRFSGSGSGTDFTLKISRVEAEDVGVYYCSQSTHVPWTFGGGTKLEIKR")
29.4
